# system_name: pY641-STAT6 in PBMC (Homo sapiens, UniProt P42226)
# Construct: Cryopreserved Peripheral Blood Mononuclear Cells (PBMC) are from AllCells; host or cells: cryopreserved PBMC
# Sequence (P42226 1-847): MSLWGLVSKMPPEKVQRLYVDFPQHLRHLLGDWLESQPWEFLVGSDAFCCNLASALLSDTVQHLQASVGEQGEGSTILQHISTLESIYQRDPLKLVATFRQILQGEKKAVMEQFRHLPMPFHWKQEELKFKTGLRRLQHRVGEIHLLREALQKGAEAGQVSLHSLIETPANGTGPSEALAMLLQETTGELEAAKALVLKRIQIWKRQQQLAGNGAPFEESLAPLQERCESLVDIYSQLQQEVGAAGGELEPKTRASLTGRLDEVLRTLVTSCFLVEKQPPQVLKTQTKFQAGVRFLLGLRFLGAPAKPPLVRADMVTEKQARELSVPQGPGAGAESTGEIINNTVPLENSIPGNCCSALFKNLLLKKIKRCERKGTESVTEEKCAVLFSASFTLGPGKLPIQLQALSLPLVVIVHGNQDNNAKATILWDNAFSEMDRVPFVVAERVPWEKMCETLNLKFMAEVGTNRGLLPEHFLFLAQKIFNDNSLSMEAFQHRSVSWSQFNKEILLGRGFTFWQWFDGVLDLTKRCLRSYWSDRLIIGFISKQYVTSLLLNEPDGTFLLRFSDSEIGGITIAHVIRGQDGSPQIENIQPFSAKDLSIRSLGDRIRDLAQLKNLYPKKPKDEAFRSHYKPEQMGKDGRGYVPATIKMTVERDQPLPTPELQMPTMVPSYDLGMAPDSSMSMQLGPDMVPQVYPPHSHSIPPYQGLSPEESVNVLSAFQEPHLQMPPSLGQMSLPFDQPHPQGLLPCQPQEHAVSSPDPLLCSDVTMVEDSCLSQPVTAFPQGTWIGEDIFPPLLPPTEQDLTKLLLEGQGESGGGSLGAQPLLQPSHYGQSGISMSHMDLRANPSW
# protocol_summary: MSD-pSTAT-PBMC Assay (pSTAT6, IL-4 stimulated)
# Assay type: cell-based
# study_conditions: PBMC, compound 3 hrs, then 1 ng/mL IL-4 for 10 min; Table 1114; read-out: pSTAT6
Task for the reader: assign each of the following molecules its reported IC50.

(Q) Missing value: IC50, pY641-STAT6 in PBMC (Homo sapiens, UniProt P42226), entry CC(C)(C)C(=O)OCOP(=O)(OCOC(=O)C(C)(C)C)C(F)(F)c1ccc2sc(C(=O)N[C@H]3CCCC[C@H]4CC[C@@H](C(=O)N5CC(F)(c6ccccc6)C5)N4C3=O)cc2c1 [Compound 174] . Fill in?
(A) 100 to 1000 nM

(Q) Missing value: IC50, pY641-STAT6 in PBMC (Homo sapiens, UniProt P42226), entry CC(C)(C)C(=O)OCOP(=O)(OCOC(=O)C(C)(C)C)C(F)(F)c1ccc2ccc(C(=O)N[C@H]3CCCC[C@H]4CC[C@@H](C(=O)N5C[C@@H](C#N)[C@]6(C5)C(=O)Nc5ccccc56)N4C3=O)cc2c1 (single isomer, unassigned) [Compound 193] . Fill in?
(A) < 100 nM

(Q) Missing value: IC50, pY641-STAT6 in PBMC (Homo sapiens, UniProt P42226), entry CC(C)OC(=O)OCOP(=O)(Cc1ccc2sc(C(=O)N[C@H]3CCCC[C@H]4CC[C@@H](C(=O)N5C[C@@H](C#N)[C@H](c6ccccc6)C5)N4C3=O)cc2c1)OCOC(=O)OC(C)C (single isomer, unassigned) [Compound 148] . Fill in?
(A) 100 to 1000 nM

(Q) Missing value: IC50, pY641-STAT6 in PBMC (Homo sapiens, UniProt P42226), entry CC(C)CC(=O)SCCOP(=O)(OCOC(=O)OC(C)C)C(F)(F)c1ccc2sc(C(=O)N[C@H]3CCCC[C@H]4CC[C@@H](C(=O)N5C[C@H](c6ccccc6)[C@@H](C#N)C5)N4C3=O)cc2c1 (single isomer, unassigned) [Compound 166] . Fill in?
(A) < 100 nM

----------
# system_name: Recombinant STAT3 protein (STAT3 (G127-I722)) (Homo sapiens, UniProt P40763)
# Construct: Recombinant STAT3 protein (STAT3 (G127-I722))
# Sequence (P40763 127-722): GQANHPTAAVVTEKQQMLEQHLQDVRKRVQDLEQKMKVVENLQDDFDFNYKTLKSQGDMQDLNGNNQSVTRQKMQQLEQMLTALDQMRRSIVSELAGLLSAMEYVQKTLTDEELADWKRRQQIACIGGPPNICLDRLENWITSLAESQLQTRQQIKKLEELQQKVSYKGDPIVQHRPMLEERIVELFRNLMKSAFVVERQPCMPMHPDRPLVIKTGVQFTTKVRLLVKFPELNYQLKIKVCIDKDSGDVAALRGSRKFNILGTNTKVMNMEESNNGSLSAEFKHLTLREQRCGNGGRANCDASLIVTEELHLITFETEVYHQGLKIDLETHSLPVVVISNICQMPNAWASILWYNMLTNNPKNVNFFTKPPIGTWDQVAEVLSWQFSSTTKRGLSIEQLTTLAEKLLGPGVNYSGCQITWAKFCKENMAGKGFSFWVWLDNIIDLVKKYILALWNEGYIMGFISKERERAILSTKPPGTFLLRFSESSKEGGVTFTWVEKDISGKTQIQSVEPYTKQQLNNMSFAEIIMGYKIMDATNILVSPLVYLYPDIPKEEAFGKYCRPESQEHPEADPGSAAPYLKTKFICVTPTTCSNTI
# protocol_summary: STAT3 Fluorescence Polarization (FP) Assay
# Type: binding
# study_conditions: STAT3 25 nM, probe 5-FAM-GpYLPQTV-NH2 2 nM, 45-minute incubation; read-out: STAT3 (FP assay IC50)
pIC50: −log10 of the molar value.
measurement_kind: pIC50

(Q) Please look up its pIC50: CC1CCC[C@H](NC(=O)c2cc3cc(C(F)(F)P(=O)(O)O)ccc3s2)C(=O)N2[C@@H]1CC[C@H]2C(=O)N1C[C@H](c2cc[nH]c(=O)c2)[C@@H](C#N)C1 (single isomer, unassigned)
(A) 6.00 to 7.00

(Q) Please look up its pIC50: "O=C(N[C@H]1CCC[C@H]2CC[C@@H](C(=O)N3CC(N4CCOCC4)C3)N2C1=O)c1cc2cc(C(F)(F)P(=O)(O)O)ccc2s1"
(A) 6.00 to 7.00

(Q) Please look up its pIC50: "COc1ccc(N(C)C(=O)[C@@H]2CC[C@@H]3CCCC[C@H](NC(=O)c4cc5cc(C(F)(F)P(=O)(O)O)ccc5s4)C(=O)N32)cn1"
(A) 5.00 to 6.00

(Q) Please look up its pIC50: "O=C(N[C@H]1CCCC[C@H]2CC[C@@H](C(=O)NCc3n[nH]c4ncccc34)N2C1=O)c1cc2cc(C(F)(F)P(=O)(O)O)ccc2s1"
(A) 6.00 to 7.00

(Q) Please look up its pIC50: "N#C[C@H]1CN(C(=O)[C@@H]2CC[C@@H]3CC[C@H](O)C[C@H](NC(=O)c4cc5cc(C(F)(F)P(=O)(O)O)ccc5s4)C(=O)N32)C[C@@H]1c1ccccc1"
(A) 5.00 to 6.00

----------
# system_name: pY641-STAT6 in PBMC (Homo sapiens)
# Construct: Cryopreserved Peripheral Blood Mononuclear Cells (PBMC) are from AllCells; host or cells: cryopreserved PBMC
# protocol_summary: MSD-pSTAT-PBMC Assay (pSTAT6, IL-4 stimulated)
# Format: cell-based
# study_conditions: PBMC, compound 3 hrs, then 1 ng/mL IL-4 for 10 min; Table 1114; read-out: pSTAT6
Task for the reader: assign each of the following compounds its reported IC50.

(Q) Missing value: IC50, pY641-STAT6 in PBMC (Homo sapiens), entry CC(C)(CO)C(=O)SCCOP(=O)(Cc1ccc2sc(C(=O)NC3CCCCC4CCC(C(=O)N5CC(C#N)C(c6ccccc6)C5)N4C3=O)cc2c1)OCCSC(=O)C(C)(C)CO (single isomer, unassigned) [Compound 199] . Fill in?
(A) > 3000 nM

(Q) Missing value: IC50, pY641-STAT6 in PBMC (Homo sapiens), entry CN(C(=O)[C@@H]1CC[C@@H]2CCCC[C@H](NC(=O)c3cc4cc(C(F)(F)P(=O)(OCOC(=O)C(C)(C)C)OCOC(=O)C(C)(C)C)ccc4[nH]3)C(=O)N21)c1ccccc1 [Compound 142] . Fill in?
(A) < 100 nM

(Q) Missing value: IC50, pY641-STAT6 in PBMC (Homo sapiens), entry CN(C)S(=O)(=O)N1CCN(C(=O)[C@@H]2CC[C@@H]3CCCC[C@H](NC(=O)c4cc5cc(C(F)(F)P(=O)(OCOC(=O)C(C)(C)C)OCOC(=O)C(C)(C)C)ccc5s4)C(=O)N32)CC1 [Compound 145] . Fill in?
(A) < 100 nM

(Q) Missing value: IC50, pY641-STAT6 in PBMC (Homo sapiens), entry CC(C)(C)C(=O)SCCOP(=O)(OCCSC(=O)C(C)(C)C)C(F)(F)c1ccc2sc(C(=O)N[C@H]3CCC4(CC4)C[C@H]4CC[C@@H](C(=O)N5CC(c6cccnc6)C5)N4C3=O)cc2c1 [Compound 132] . Fill in?
(A) > 3000 nM

(Q) Missing value: IC50, pY641-STAT6 in PBMC (Homo sapiens), entry CCCC(=O)SCCOP(=O)(OCCSC(=O)CCC)C(F)(F)c1ccc2sc(C(=O)N[C@H]3CCCC[C@H]4CC[C@@H](C(=O)N5C[C@@H](C#N)[C@H](c6ccccc6)C5)N4C3=O)cc2c1 (single isomer, unassigned) [Compound 152] . Fill in?
(A) 100 to 1000 nM

(Q) Missing value: IC50, pY641-STAT6 in PBMC (Homo sapiens), entry CC(C)CC(=O)SCCOP(=O)(OCCSC(=O)CC(C)C)C(F)(F)c1ccc2sc(C(=O)N[C@H]3CCCCC4CC[C@@H](C(=O)N5C[C@H](c6ccccc6)[C@@H](C#N)C5)N4C3=O)cc2c1 (single isomer, unassigned) [Compound 163] . Fill in?
(A) < 100 nM

(Q) Missing value: IC50, pY641-STAT6 in PBMC (Homo sapiens), entry CC(C)CC(=O)SCCCCOP(=O)(OCCCCSC(=O)CC(C)C)C(F)(F)c1ccc2sc(C(=O)N[C@H]3CCCC[C@H]4CC[C@@H](C(=O)N5CC(C#N)C(c6ccccc6)C5)N4C3=O)cc2c1 (single isomer, unassigned) [Compound 153] . Fill in?
(A) > 3000 nM

(Q) Missing value: IC50, pY641-STAT6 in PBMC (Homo sapiens), entry CC(C)(C)C(=O)OCOP(=O)(OCOC(=O)C(C)(C)C)C(F)(F)c1ccc2sc(C(=O)N[C@H]3CCCC[C@H]4CCC[C@@H](C(=O)N5CC(C(=O)N6CCOCC6)C5)N4C3=O)cc2c1 [Compound 172] . Fill in?
(A) 1000 to 3000 nM

(Q) Missing value: IC50, pY641-STAT6 in PBMC (Homo sapiens), entry CC(C)(C)C(=O)SCCOP(=O)(Cc1ccc2sc(C(=O)N[C@H]3CCCC[C@H]4CC[C@@H](C(=O)N5C[C@@H](C#N)[C@H](c6ccccc6)C5)N4C3=O)cc2c1)OCCSC(=O)C(C)(C)C (single isomer, unassigned) [Compound 149] . Fill in?
(A) > 3000 nM
